# measurement-target: δ opioid receptor of the mouse isolated vas deferens (mouse), P32300
# Sequence (P32300 whole entry, stated change not applied): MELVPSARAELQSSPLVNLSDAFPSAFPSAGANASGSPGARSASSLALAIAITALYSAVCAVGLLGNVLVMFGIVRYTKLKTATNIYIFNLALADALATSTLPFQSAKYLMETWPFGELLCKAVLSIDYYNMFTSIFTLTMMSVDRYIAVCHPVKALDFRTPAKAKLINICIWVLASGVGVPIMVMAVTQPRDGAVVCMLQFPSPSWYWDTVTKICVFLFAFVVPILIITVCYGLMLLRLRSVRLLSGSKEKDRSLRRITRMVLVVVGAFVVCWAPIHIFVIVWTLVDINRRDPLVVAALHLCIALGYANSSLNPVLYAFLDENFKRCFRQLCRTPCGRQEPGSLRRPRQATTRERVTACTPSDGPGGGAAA
# experimental-protocol: cell-based or functional assay
Square brackets hold non-standard residues; d marks the D form. * marks the point of attachment. OBzl(3,5-(CF3)2) = FC(F)(F)c1cc(CO*)cc(C(F)(F)F)c1; Met(O) = CS(=O)CC[C@H](N)C(=O)O
measured-parameter: log10(MVD (δ) opioid agonist IC50) (log10 of the value in nM)
The base-10 logarithm of MVD (δ) opioid agonist IC50, taken with MVD (δ) opioid agonist IC50 in nM, is what appears here.

IN: Please give measured log10(MVD (δ) opioid agonist IC50) of the following entry: H-Y[dA]GFMPLW-{OBzl(3,5-(CF3)2)} (also: TFA salt) [H-Tyr-D-Ala-Gly-Phe-Met-Pro-Leu-Trp-O-3,5-Bzl(CF3)2]
OUT: 1.35

IN: Please give measured log10(MVD (δ) opioid agonist IC50) of the following entry: H-Y[dA]GF[dF]PLW-{OBzl(3,5-(CF3)2)} (also: TFA salt) [H-Tyr-D-Ala-Gly-Phe-D-Phe-Pro-Leu-Trp-O-3,5-Bzl(CF3)2]
OUT: 2.61

IN: Please give measured log10(MVD (δ) opioid agonist IC50) of the following entry: YAGFXPLW (here or on the partner: D-Ala at 2; Nle (norleucine, written X) at 5; C-terminal 3,5-bis(trifluoromethyl)benzyl ester) [H-Tyr-D-Ala-Gly-Phe-Nle-Pro-Leu-Trp-O-3,5-Bzl(CF3)2]
OUT: 1.23

IN: Please give measured log10(MVD (δ) opioid agonist IC50) of the following entry: H-Y[dA]GF[Met(O)]PLW-{OBzl(3,5-(CF3)2)} (also: TFA salt) [H-Tyr-D-Ala-Gly-Phe-Met(O)-Pro-Leu-Trp-O-3,5-Bzl(CF3)2]
OUT: 1.52

IN: Please give measured log10(MVD (δ) opioid agonist IC50) of the following entry: H-Y[dA]GFLPLW-{OBzl(3,5-(CF3)2)} (also: TFA salt) [H-Tyr-D-Ala-Gly-Phe-Leu-Pro-Leu-Trp-O-3,5-Bzl(CF3)2]
OUT: 2.00

IN: Please give measured log10(MVD (δ) opioid agonist IC50) of the following entry: H-Y[dA]GFFPLW-{OBzl(3,5-(CF3)2)} (also: TFA salt) [H-Tyr-D-Ala-Gly-Phe-Phe-Pro-Leu-Trp-O-3,5-Bzl(CF3)2]
OUT: 2.96

IN: Please give measured log10(MVD (δ) opioid agonist IC50) of the following entry: H-Y[dA]GFGPLW-{OBzl(3,5-(CF3)2)} (also: TFA salt) [H-Tyr-D-Ala-Gly-Phe-Gly-Pro-Leu-Trp-O-3,5-Bzl(CF3)2]
OUT: 2.24
